Source: patent US9125913B2

Tested on: GST-Bcl-2
assayInfo: TR-FRET binding assay, Bcl-2
measurementSetup: TR-FRET Ki values
measureName: Binding selectivity ratio (Bcl-XL Ki/Bcl-2 Ki)
Number only, no unit.

Use the examples below as a reference point.
- molecule: "CC1(C)CCC(CN2CCN(c3ccc(C(=O)NS(=O)(=O)c4ccc(NCC5(N)CCCCC5)c([N+](=O)[O-])c4)c(Oc4ccc5[nH]ccc5c4)c3)CC2)=C(c2ccc(Cl)cc2)C1"
  endpointResult: 811
- molecule: "CC1(C)CCC(CN2CCN(c3ccc(C(=O)NS(=O)(=O)c4ccc(NCCN5CCCC5=O)c([N+](=O)[O-])c4)c(Oc4ccc5[nH]ccc5c4)c3)CC2)=C(c2ccc(Cl)cc2)C1"
  endpointResult: 1438.5
- molecule: "CN1CCC(Nc2ccc(S(=O)(=O)NC(=O)c3ccc(N4CCN(Cc5ccccc5-c5ccc(Cl)cc5)CC4)cc3Oc3ccccc3)cc2[N+](=O)[O-])CC1"
  endpointResult: 57.8

Problem: Reported Binding selectivity ratio (Bcl-XL Ki/Bcl-2 Ki) for CC1(C)CCC(CN2CCN(c3ccc(C(=O)NS(=O)(=O)c4ccc(NCC5CCOC5)c([N+](=O)[O-])c4)c(Oc4cccc5[nH]cnc45)c3)CC2)=C(c2ccc(Cl)cc2)C1 (stereo not shown) : what is it?
Solution: 1496.8

Problem: Consider the molecule COCCCNc1ccc(S(=O)(=O)NC(=O)c2ccc(N3CCN(CC4=C(c5ccc(Cl)cc5)CC(C)(C)CC4)CC3)cc2Oc2cccc3[nH]ccc23)cc1[N+](=O)[O-] and give its measured Binding selectivity ratio (Bcl-XL Ki/Bcl-2 Ki).
Solution: 102.6

Problem: I'd like to know its Binding selectivity ratio (Bcl-XL Ki/Bcl-2 Ki). The molecule in question is CN1CCC(Nc2ccc(S(=O)(=O)NC(=O)c3ccc(N4CCN(CC5=C(c6ccc(Cl)cc6)CC(C)(C)CC5)CC4)cc3Oc3cccc4c3CCN4)cc2[N+](=O)[O-])CC1
Solution: 23.62

###

Test system: GST-Bcl-2
assayInfo: TR-FRET binding assay, Bcl-2
measurementSetup: TR-FRET Ki values
measureName: Binding selectivity ratio (Bcl-XL Ki/Bcl-2 Ki)
Just the number, please.

Problem: Given the entry O=C(NS(=O)(=O)c1ccc(NCC2CCOCC2)c([N+](=O)[O-])c1)c1ccc(N2CCN(Cc3ccccc3-c3ccc(Cl)cc3)CC2)cc1Oc1cccnc1 , report its measured Binding selectivity ratio (Bcl-XL Ki/Bcl-2 Ki).
Solution: 47.4

Problem: Please look up its Binding selectivity ratio (Bcl-XL Ki/Bcl-2 Ki): Cn1cncc1CNc1ccc(S(=O)(=O)NC(=O)c2ccc(N3CCN(CC4=C(c5ccc(Cl)cc5)CC(C)(C)CC4)CC3)cc2Oc2ccc3[nH]ccc3c2)cc1[N+](=O)[O-]
Solution: 633.9

Problem: I have this compound here, CC1(C)CCC(CN2CCN(c3ccc(C(=O)NS(=O)(=O)c4cnc(OCC5(F)CCOCC5)c(C#N)c4)c(Oc4cccc5[nH]ccc45)c3)CC2)=C(c2ccc(Cl)cc2)C1 , and I need its recorded Binding selectivity ratio (Bcl-XL Ki/Bcl-2 Ki).
Solution: 1110

###

Test system: GST-Bcl-2
assayInfo: TR-FRET binding assay, Bcl-2
measurementSetup: TR-FRET Ki values
Consider the following compounds and their measured Binding selectivity ratio (Bcl-XL Ki/Bcl-2 Ki) readings.
# answer = number (no unit)

- compound: "COCCN1CCC(Nc2ccc(S(=O)(=O)NC(=O)c3ccc(N4CCN(CC5=C(c6ccc(Cl)cc6)CC(C)(C)CC5)CC4)cc3Oc3cccc4[nH]ccc34)cc2[N+](=O)[O-])CC1"
  endpointResult: 212.4
- compound: "CN(C)CCOc1cccc(-c2ccc(Cl)cc2)c1CN1CCN(c2ccc(C(=O)NS(=O)(=O)c3ccc(NC4CCN(C5CCOCC5)CC4)c([N+](=O)[O-])c3)c(Oc3cccc4[nH]ccc34)c2)CC1"
  endpointResult: 369.8
- compound: "CC1(C)CCC(CN2CCN(c3ccc(C(=O)NS(=O)(=O)c4ccc(NCCC#N)c([N+](=O)[O-])c4)c(Oc4ccc5[nH]ccc5c4)c3)CC2)=C(c2ccc(Cl)cc2)C1"
  endpointResult: 503.4

Field: next compound
Problem: Data request, read-out Binding selectivity ratio (Bcl-XL Ki/Bcl-2 Ki), for CC1(C)CCC(CN2CCN(c3ccc(C(=O)NS(=O)(=O)c4ccc(NCC5(N)CCOCC5)c([N+](=O)[O-])c4)c(Oc4ccc5[nH]ccc5c4)c3)CC2CO)=C(c2ccc(Cl)cc2)C1 (centres unmarked)
Solution: 668.3
